# Protocol Details: physchem
# Description: Dissociation constant (pKa)
Measured Quantity: pKa

a = CS(=O)(=O)CCNCc1cc2cc(S(N)(=O)=O)sc2s1.Cl
b = NS(=O)(=O)c1cc2cc(CNCCCCO)sc2s1
# return whichever of a and b has the smaller pKa Please reply using the label of the selected record.
a

1 = C[S+]([O-])CCNCc1cc2cc(S(N)(=O)=O)sc2s1.Cl (stereo not given)
2 = CC(C)(C)NCc1cc2cc(S(N)(=O)=O)sc2s1
# return whichever of 1 and 2 has the smaller pKa Please reply using the label of the selected record.
1
(1: 5.58, 2: 8.28)

====

# Assay System: Carbonic anhydrase 2 (Homo sapiens)
# Protocol Details: The compound was tested for in vitro inhibitory activity against human carbonic anhydrase II.
# Experimental Parameters: read-out: I50
Measured Quantity: pIC50
# reply with the number alone; pIC50 is -log10 of concentration in mol/L

Under Carbonic anhydrase 2 (Homo sapiens): pIC50 value of CC(C)(C)NCc1cc2cc(S(N)(=O)=O)sc2s1 ?
8.00

====

# Assay System: Carbonic anhydrase 2 (Homo sapiens)
# Protocol Details: The compound was tested for in vitro inhibitory activity against human carbonic anhydrase II
# Experimental Parameters: read-out: I50
Measured Quantity: pIC50
# reply with the number alone; pIC50 is -log10 of concentration in mol/L

For the molecule shown here, COCCOCCNC(C)c1cc2cc(S(N)(=O)=O)sc2s1.Cl (stereo unspecified) , give the reported pIC50.
9.15

====

# Assay System: Carbonic anhydrase 2 (Homo sapiens, UniProt P00918)
Measured Quantity: IC50 (nM)

A = CS(=O)(=O)CCNCc1cc2cc(S(N)(=O)=O)sc2s1.Cl
B = CC(C=O)N(Cc1cc2cc(S(N)(=O)=O)sc2s1)C(C)C=O.Cl (stereo not drawn)
Form field 'greater IC50' accepts A or B ; which applies? Please reply using the label of the selected record.
A

====

# Protocol Details: physchem
Measured Quantity: pKa

[[record]]
chem_smiles = "Cl.NS(=O)(=O)c1cc2cc(C(=O)NCCN3CCSCC3)sc2s1"
measured_quantity = "pKa"
reported_value = 6.03


P = NS(=O)(=O)c1cc2cc(CN3CC[S+]([O-])CC3)sc2s1
Q = CN(C)CCNC(=O)c1cc2cc(S(N)(=O)=O)sc2s1.Cl
# return whichever of P and Q has the smaller pKa Please reply using the label of the selected record.
P

a = CC(C)CNCc1cc2sc(S(N)(=O)=O)cc2s1.Cl
b = Cl.NS(=O)(=O)c1cc2cc(CNCC(F)(F)F)sc2s1
# return whichever of a and b has the smaller pKa Please reply using the label of the selected record.
b

====

# Assay System: Carbonic anhydrase 2 (Homo sapiens, UniProt P00918)
Measured Quantity: IC50 (nM)

The following compounds have reported results that may help.
[[record]]
compound = "Cl.NS(=O)(=O)c1cc2cc(CNCC(F)(F)F)sc2s1"
assay_system = "Carbonic anhydrase 2 (Homo sapiens, UniProt P00918)"
measured_quantity = "IC50"
reported_value = 2.2

[[record]]
compound = "NS(=O)(=O)c1cc2cc(C(=O)N(CCO)CCO)sc2s1"
assay_system = "Carbonic anhydrase 2 (Homo sapiens, UniProt P00918)"
measured_quantity = "IC50"
reported_value = 6.6

[[record]]
compound = "COCCCNCc1cc2cc(S(N)(=O)=O)sc2s1.Cl"
assay_system = "Carbonic anhydrase 2 (Homo sapiens, UniProt P00918)"
measured_quantity = "IC50"
reported_value = 4.9

[[record]]
compound = "CC(C)CNCc1cc2sc(S(N)(=O)=O)cc2s1.Cl"
assay_system = "Carbonic anhydrase 2 (Homo sapiens, UniProt P00918)"
measured_quantity = "IC50"
reported_value = 2.8


1 = COCCOCCN(CCOC)C(C)c1cc2cc(S(N)(=O)=O)sc2s1 (stereo not given)
2 = COCCN(CCNC(=O)c1cc2cc(S(N)(=O)=O)sc2s1)CCOC.Cl
# return whichever of 1 and 2 has the smaller IC50 Please reply using the label of the selected record.
1
(1: 0.5 nM, 2: 2.5 nM)

P = COCCN(CCOC)Cc1cc2sc(S(N)(=O)=O)cc2s1.Cl
Q = COCCOCCCNCc1cc2cc(S(N)(=O)=O)sc2s1.Cl
R = NS(=O)(=O)c1cc2cc(CN3CC[S+]([O-])CC3)sc2s1
Ordering criterion: IC50; begin with the maximum. Put the labels in the requested order and list them out.
Q, R, P

====

// Carbonic anhydrase 2 (Homo sapiens) IC50 records
Measured Quantity: IC50 (nM)

a = COCCOCCN(CCOC)Cc1cc2cc(S(N)(=O)=O)sc2s1.Cl
b = C[S+]([O-])CCNCc1cc2cc(S(N)(=O)=O)sc2s1.Cl (configuration not stated)
c = COCCNCc1cc2cc(S(N)(=O)=O)sc2s1.Cl
// rank above by IC50: first = highest number Put the labels in the requested order and list them out.
b, c, a

====

# Protocol Details: physchem
# Experimental Parameters: octanol/water, pH 7.4
# Description: Partition coefficient (logD7.4)
Measured Quantity: logD

[[record]]
compound = "COCCOCCCNCc1cc2cc(S(N)(=O)=O)sc2s1.Cl"
measured_quantity = "logD"
reported_value = -0.137


1 = CC(C)CNCc1cc2sc(S(N)(=O)=O)cc2s1.Cl
2 = CNCc1cc2sc(S(N)(=O)=O)cc2s1.Cl
3 = NS(=O)(=O)c1cc2cc(CN3CC[S+]([O-])CC3)sc2s1
4 = COCCOCCNC(C)c1cc2cc(S(N)(=O)=O)sc2s1.Cl (configuration not stated)
Ordering criterion: logD; begin with the maximum. Put the labels in the requested order and list them out.
1, 4, 3, 2
(1: 1.24, 4: 0.708, 3: 0.111, 2: -0.495)

a = COCCOCCN(CCOC)Cc1cc2cc(S(N)(=O)=O)sc2s1.Cl
b = NS(=O)(=O)c1cc2cc(C(=O)NCC(O)CO)sc2s1 (configuration not stated)
# return whichever of a and b has the smaller logD Please reply using the label of the selected record.
b
(b: -0.347, a: 1.14)

====

pKi: −log10 of the molar value.
// UniProtKB P00918 pKi records
Measured Quantity: pKi

The following compounds have reported results that may help.
[[record]]
compound = "NS(=O)(=O)c1cc2cc(C(=O)NCC(O)CO)sc2s1 (stereo not given)"
reported_value = 8.47

[[record]]
compound = "COCCNCc1cc2cc(S(N)(=O)=O)sc2s1.Cl"
reported_value = 8.41

[[record]]
compound = "NS(=O)(=O)c1cc2cc(CN3CC[S+]([O-])CC3)sc2s1"
reported_value = 8.47


1 = C[S+]([O-])CCNC(=O)c1cc2cc(S(N)(=O)=O)sc2s1 (stereo not given)
2 = CC(C)(C)NCc1cc2cc(S(N)(=O)=O)sc2s1
3 = C[S+]([O-])CCNCc1cc2cc(S(N)(=O)=O)sc2s1.Cl (stereo not given)
4 = NS(=O)(=O)c1cc2cc(C(=O)N(CCO)CCO)sc2s1
I would appreciate it if you could sort these 4 compounds by pKi, starting from the smallest number. Put the labels in the requested order and list them out.
2, 4, 3, 1
(2: 7.43, 4: 8.05, 3: 8.26, 1: 8.62)

====

# Protocol Details: physchem
Measured Quantity: pKa

[[record]]
molecule = "COCCCNCc1cc2cc(S(N)(=O)=O)sc2s1.Cl"
reported_value = 7.52

[[record]]
molecule = "NCc1cc2cc(S(N)(=O)=O)sc2s1"
reported_value = 7.3

[[record]]
molecule = "Cl.NS(=O)(=O)c1cc2cc(CN3CCOCC3)sc2s1"
reported_value = 5.25

[[record]]
molecule = "COCCNCc1cc2cc(S(N)(=O)=O)sc2s1.Cl"
reported_value = 7

[[record]]
molecule = "CNC(=O)c1cc2cc(S(N)(=O)=O)sc2s1"
reported_value = 5.2

[[record]]
molecule = "Cl.NS(=O)(=O)c1cc2cc(CN3CCSCC3)sc2s1"
reported_value = 5.05

[[record]]
molecule = "Cl.NS(=O)(=O)c1cc2cc(C(=O)NCCN3CCOCC3)sc2s1"
reported_value = 5.8

[[record]]
molecule = "NS(=O)(=O)c1cc2cc(CNCCO)sc2s1"
reported_value = 7.18

[[record]]
molecule = "CC(C=O)N(Cc1cc2cc(S(N)(=O)=O)sc2s1)C(C)C=O.Cl (stereo unspecified)"
reported_value = 5.75

[[record]]
molecule = "COCCN(CCOC)Cc1cc2cc(S(N)(=O)=O)sc2s1.Cl"
reported_value = 5.34

[[record]]
molecule = "COCCOCCNC(C)c1cc2cc(S(N)(=O)=O)sc2s1.Cl (stereo unspecified)"
reported_value = 7.13

[[record]]
molecule = "NS(=O)(=O)c1cc2cc(CNC(CO)CO)sc2s1"
reported_value = 6.95

[[record]]
molecule = "NS(=O)(=O)c1cc2cc(CNCC3CC3)sc2s1"
reported_value = 7.72

[[record]]
molecule = "COCCOCCCNCc1cc2cc(S(N)(=O)=O)sc2s1.Cl"
reported_value = 7.4

[[record]]
molecule = "CC(C)CNCc1cc2cc(S(N)(=O)=O)sc2s1"
reported_value = 7.9

[[record]]
molecule = "COCCOCCN(CCOCCOC)Cc1cc2cc(S(N)(=O)=O)sc2s1.Cl"
reported_value = 5.72


Cited source: ChEMBL document CHEMBL1125927
